- assayRemarks: in vivo
- protocolConditions: rat, po
Where a name gives a salt, the structure may show the parent alone.
endpoint: AUC (ng·h/mL)
Report only the number, with the unit ng·h/mL understood.

Which value of AUC has been reported for [2H]C([2H])([2H])n1cc(-c2ccnc(Nc3cc(NC(=O)C=C)c(N(C)CCN(C)C)cc3OC)n2)c2ccccc21 [deuterated AZD9291 mesylate crystal form] in the records? 1270

----------
- assayRemarks: in vivo
- protocolConditions: rat, po
- Excerpt: Moreover, a single impurity is below 0.1%, which is in line with requirements for the development of API and CMC. The high bioavailability of oral administration proves that this crystal form is suitable for the development of oral preparations.
Structures can show the parent of a compound that is named as a salt.
endpoint: bioavailability

Which value of bioavailability has been reported for [2H]C([2H])([2H])n1cc(-c2ccnc(Nc3cc(NC(=O)C=C)c(N(C)CCN(C)C)cc3OC)n2)c2ccccc21 [deuterated AZD9291 mesylate crystal form] in the records? 30.9%
